target: Cytochrome P450 2C9 (Homo sapiens)
Sequence (P11712 whole entry): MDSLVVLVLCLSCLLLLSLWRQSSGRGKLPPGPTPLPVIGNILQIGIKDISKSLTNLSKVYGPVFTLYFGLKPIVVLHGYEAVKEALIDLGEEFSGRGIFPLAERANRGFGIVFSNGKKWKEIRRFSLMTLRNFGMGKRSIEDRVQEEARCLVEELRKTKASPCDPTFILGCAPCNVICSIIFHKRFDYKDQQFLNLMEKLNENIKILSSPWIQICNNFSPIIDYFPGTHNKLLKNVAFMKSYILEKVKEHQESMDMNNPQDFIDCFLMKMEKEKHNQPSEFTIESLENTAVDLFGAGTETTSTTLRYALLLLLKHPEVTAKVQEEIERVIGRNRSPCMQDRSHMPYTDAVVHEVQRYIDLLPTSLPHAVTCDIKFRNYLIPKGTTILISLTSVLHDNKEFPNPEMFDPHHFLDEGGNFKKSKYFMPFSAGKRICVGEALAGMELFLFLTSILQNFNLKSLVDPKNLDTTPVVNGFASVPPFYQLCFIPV
outcome-measure: pIC50
pIC50 is defined as minus the log10 of a concentration measured in mol/L.

Q: Item under review: NC[C@H]1CC[C@]2(CC1)OOC1(O2)C2CC3CC(C2)CC1C3 (stereo partly specified) . Reported pIC50?
A: 4.77

---

assay: Volume of distribution in Sprague-Dawley rat at 10 mg/kg, iv; format: ADME, organism-based; parameters: dose 10 mg/kg, route intravenous; settings: Sprague-Dawley, in vivo
outcome-measure: Vd (L/kg)
Use L/kg as the unit, but write only the number.

Q: State the recorded Vd for this entry: C[C@H]1[C@@H](O)O[C@@H]2O[C@@]3(C)CC[C@H]4[C@H](C)CC[C@@H]1[C@@]24OO3
A: 3

# credit: ChEMBL document CHEMBL1153189
